Molecular target: E. coli DNA gyrase (Escherichia coli, UniProt P0AES4+P0AES6)
Construct: purchased John Innes Enterprises #K0001
Assay: DNA gyrase inhibition (supercoiling kit), Exp. Ex. 2-2
Format: biochemical
Excerpt: As a kit for measurement of DNA gyrase of Escherichia coli, a product purchased from John Innes Enterprises (Gyrase Supercoiling assay kit #K0001) was used. Relaxed DNA was modified with gyrase into supercoiled DNA, and reaction products were separated by electrophoresis depending on the sizes of the molecular weights to examine anti-gyrase effects (IC50). […]

Molecule	IC50 [nM]
Cc1ccc(CC(=O)OC[C@H]2O[C@@H](Oc3c(-c4ccc(O)c(O)c4)oc4cc(O)cc(O)c4c3=O)[C@H](OC(=O)Cc3ccc(C)cc3)[C@@H](O)[C@H]2O)cc1 [Compound 14d]	2210
O=C(CCc1ccc(O)cc1)OC[C@H]1O[C@@H](Oc2c(-c3ccc(O)c(O)c3)oc3cc(O)cc(O)c3c2=O)[C@H](OC(=O)CCc2ccc(O)cc2)[C@@H](O)[C@H]1O [Compound 14f]	2390
Cc1ccc(CCC(=O)OCC2OC(Oc3c(-c4ccc(O)c(O)c4)oc4cc(O)cc(O)c4c3=O)C(OC(=O)CCc3ccc(C)cc3)C(O)C2O)cc1 (stereo not drawn) [Compound 14l]	1790

Reference source: patent US8916526B2
